Parameter IC50: see the listing below.
Target: caspase-6 cleavage of lamin A/C in SKNAS cells (Homo sapiens)
Construct: monitors cellular caspase-6 cleavage of endogenous lamin A/C under apoptotic conditions; endogenous in cells
Sequence (P55212 24-179 limits assumed): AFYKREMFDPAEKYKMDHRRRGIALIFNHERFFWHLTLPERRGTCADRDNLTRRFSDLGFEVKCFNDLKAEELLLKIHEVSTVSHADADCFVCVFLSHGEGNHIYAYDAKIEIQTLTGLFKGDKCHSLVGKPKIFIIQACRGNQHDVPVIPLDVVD
Sequence (P55212 194-293 limits assumed): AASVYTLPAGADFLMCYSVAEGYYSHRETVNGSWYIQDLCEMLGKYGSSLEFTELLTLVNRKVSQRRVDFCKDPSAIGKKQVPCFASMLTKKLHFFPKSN
Assay: Cell-based ELISA for cleaved lamin A/C (cellular lamin cleavage assay)
Conditions: SKNAS cells, inhibitor 30 min before 3 µM staurosporine for 6 hours; small lamin A/C cleavage product
Peptide text beside a SMILES is read from it. * marks the point of attachment. Cbz = O=C(OCc1ccccc1)*; CH2F = FC*

- COMPOUND: "CC(=O)N[C@@H](CC(=O)O)C(=O)N[C@@H](CCC(=O)O)C(=O)N[C@H](C(=O)N[C@H](C=O)CC(=O)O)C(C)C [Ac-DEVD-CHO]"
  IC50: "> 100 µM"
- COMPOUND: "COC(=O)C[C@H](NC(=O)[C@H](C)NC(=O)[C@@H](NC(=O)OCc1ccccc1)C(C)C)C(=O)CF [z-VAD-FMK] (Cbz-Val-Ala-Asp(OMe)-CH2F)"
  IC50: "44 µM"
- COMPOUND: "CC(C)[C@H](NC(=O)c1ccc2ccccc2n1)C(=O)N[C@@H](CC(=O)O)C(=O)COc1c(F)cccc1F [Q-VD-OPh]"
  IC50: "0.94 µM"
- COMPOUND: "COC(=O)CC[C@H](NC(=O)[C@H](CC(=O)OC)NC(=O)OCc1ccccc1)C(=O)N[C@H](C(=O)N[C@@H](CC(=O)OC)C(=O)CF)C(C)C [z-DEVD-FMK]"
  IC50: "> 100 µM"

* * *

Target: Caspase-3 (Homo sapiens, UniProt P42574)
Sequence (P42574 29-175 limits assumed): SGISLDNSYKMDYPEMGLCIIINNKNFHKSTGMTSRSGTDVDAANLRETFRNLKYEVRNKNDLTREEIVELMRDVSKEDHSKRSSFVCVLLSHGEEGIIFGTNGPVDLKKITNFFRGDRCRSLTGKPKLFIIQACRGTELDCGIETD
Sequence (P42574 176-277 limits assumed): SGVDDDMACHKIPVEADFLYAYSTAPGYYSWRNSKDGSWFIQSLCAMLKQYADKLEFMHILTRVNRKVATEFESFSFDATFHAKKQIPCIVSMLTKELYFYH
Peptide text beside a SMILES is read from it. * marks the point of attachment. Cbz = O=C(OCc1ccccc1)*; CH2F = FC*

- COMPOUND: "COC(=O)C[C@H](NC(=O)[C@H](C)NC(=O)[C@@H](NC(=O)OCc1ccccc1)C(C)C)C(=O)CF [z-VAD-FMK] (Cbz-Val-Ala-Asp(OMe)-CH2F)"
  TARGET_DESC: "Caspase-3 (Homo sapiens, UniProt P42574)"
  IC50 / nM: 168
- COMPOUND: "CC[C@H](C)[C@H](NC(=O)[C@H](CCC(=O)OC)NC(=O)[C@@H](NC(=O)OCc1ccccc1)C(C)C)C(=O)N[C@@H](CC(=O)OC)C(=O)CF [z-VEID-FMK] (Cbz-VE(OMe)ID(OMe)-CH2F)"
  TARGET_DESC: "Caspase-3 (Homo sapiens, UniProt P42574)"
  IC50 / nM: 45.1
- COMPOUND: "CC[C@H](C)[C@H](NC(C)=O)C(=O)N[C@@H](CCC(=O)O)C(=O)N[C@H](C(=O)N[C@H](C=O)CC(=O)O)[C@@H](C)O [Ac-IETD-CHO] (Ac-IETD-aldehyde)"
  TARGET_DESC: "Caspase-3 (Homo sapiens, UniProt P42574)"
  IC50 / nM: 75.8
- COMPOUND: "CC[C@H](C)[C@H](NC(=O)[C@H](CCC(=O)O)NC(=O)[C@@H](NC(C)=O)C(C)C)C(=O)N[C@H](C=O)CC(=O)O [Ac-VEID-CHO] (Ac-VEID-aldehyde)"
  TARGET_DESC: "Caspase-3 (Homo sapiens, UniProt P42574)"
  IC50 / nM: 13.6

* * *

Parameter pIC50: see the listing below.
Target: Caspase-6 (Homo sapiens)
Test: Enzymatic caspase activity assay, (Ac-VEID)2-Rh110 substrate
Settings: read-out: Mean IC50 Caspase-6; apparent IC50; 15 minute enzyme/inhibitor preincubation and 40 minute enzyme reaction; 1 nM caspase-6, 5 µM (Ac-VEID)2-Rh110
pIC50: −log10 of the molar value. Peptide text beside a SMILES is read from it. * marks the point of attachment. Cbz = O=C(OCc1ccccc1)*; CH2F = FC*

- COMPOUND: "COC(=O)C[C@H](NC(=O)[C@H](C)NC(=O)[C@@H](NC(=O)OCc1ccccc1)C(C)C)C(=O)CF [z-VAD-FMK] (Cbz-Val-Ala-Asp(OMe)-CH2F)"
  pIC50: 5.68
- COMPOUND: "CC(=O)N[C@@H](CC(=O)O)C(=O)N[C@@H](CCC(=O)O)C(=O)N[C@H](C(=O)N[C@H](C=O)CC(=O)O)C(C)C [Ac-DEVD-CHO]"
  pIC50: 7.52
- COMPOUND: "CC[C@H](C)[C@H](NC(=O)[C@H](CCC(=O)OC)NC(=O)[C@@H](NC(=O)OCc1ccccc1)C(C)C)C(=O)N[C@@H](CC(=O)OC)C(=O)CF [z-VEID-FMK] (Cbz-VE(OMe)ID(OMe)-CH2F)"
  pIC50: 6.89
- COMPOUND: "COC(=O)CC[C@H](NC(=O)[C@H](CC(=O)OC)NC(=O)OCc1ccccc1)C(=O)N[C@H](C(=O)N[C@@H](CC(=O)OC)C(=O)CF)C(C)C [z-DEVD-FMK]"
  pIC50: 6.40
- COMPOUND: "CC[C@H](C)[C@H](NC(C)=O)C(=O)N[C@@H](CCC(=O)O)C(=O)N[C@H](C(=O)N[C@H](C=O)CC(=O)O)[C@@H](C)O [Ac-IETD-CHO] (Ac-IETD-aldehyde)"
  pIC50: 7.27

* * *

Target: Caspase-6 (Homo sapiens, UniProt P55212)
Assay: Enzymatic caspase activity assay, (Ac-VEID)2-Rh110 substrate
Conditions: read-out: Enzymatic Caspase-6 IC50; 15 minute enzyme/inhibitor preincubation and 40 minute enzyme reaction
pIC50: −log10 of the molar value. Peptide text beside a SMILES is read from it. * marks the point of attachment. Cbz = O=C(OCc1ccccc1)*; CH2F = FC*

- COMPOUND: "COC(=O)CC[C@H](NC(=O)[C@H](CC(=O)OC)NC(=O)OCc1ccccc1)C(=O)N[C@H](C(=O)N[C@@H](CC(=O)OC)C(=O)CF)C(C)C"
  pIC50: 6.40
- COMPOUND: "CC(C)[C@H](NC(=O)c1ccc2ccccc2n1)C(=O)N[C@@H](CC(=O)O)C(=O)COc1c(F)cccc1F"
  pIC50: 6.81
- COMPOUND: "COC(=O)C[C@H](NC(=O)[C@H](C)NC(=O)[C@@H](NC(=O)OCc1ccccc1)C(C)C)C(=O)CF [z-VAD-FMK] (Cbz-Val-Ala-Asp(OMe)-CH2F)"
  pIC50: 5.68
- COMPOUND: "CC[C@H](C)[C@H](NC(=O)[C@H](CCC(=O)OC)NC(=O)[C@@H](NC(=O)OCc1ccccc1)C(C)C)C(=O)N[C@@H](CC(=O)OC)C(=O)CF [z-VEID-FMK] (Cbz-VE(OMe)ID(OMe)-CH2F)"
  pIC50: 6.89
- COMPOUND: "CC(=O)N[C@@H](CC(=O)O)C(=O)N[C@@H](CCC(=O)O)C(=O)N[C@H](C(=O)N[C@H](C=O)CC(=O)O)C(C)C"
  pIC50: 7.51

* * *

Target: UniProt P55210
Sequence (P55210 24-198 limits assumed): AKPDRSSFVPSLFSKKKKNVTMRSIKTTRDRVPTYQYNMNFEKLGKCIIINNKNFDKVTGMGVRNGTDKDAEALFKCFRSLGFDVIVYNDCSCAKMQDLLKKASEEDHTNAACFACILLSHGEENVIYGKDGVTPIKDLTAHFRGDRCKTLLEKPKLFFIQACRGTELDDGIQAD
Sequence (P55210 207-303 limits assumed): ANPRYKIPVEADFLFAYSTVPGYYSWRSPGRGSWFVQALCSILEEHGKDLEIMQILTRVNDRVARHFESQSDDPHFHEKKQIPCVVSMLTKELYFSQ
Peptide text beside a SMILES is read from it. * marks the point of attachment. Cbz = O=C(OCc1ccccc1)*; CH2F = FC*

- COMPOUND: "COC(=O)C[C@H](NC(=O)[C@H](C)NC(=O)[C@@H](NC(=O)OCc1ccccc1)C(C)C)C(=O)CF [z-VAD-FMK] (Cbz-Val-Ala-Asp(OMe)-CH2F)"
  TARGET_DESC: "UniProt P55210"
  IC50: "74.7 nM"
- COMPOUND: "CC(=O)N[C@@H](CC(=O)O)C(=O)N[C@@H](CCC(=O)O)C(=O)N[C@H](C(=O)N[C@H](C=O)CC(=O)O)C(C)C"
  TARGET_DESC: "UniProt P55210"
  IC50: "3.7 nM"
- COMPOUND: "CC[C@H](C)[C@H](NC(=O)[C@H](CCC(=O)O)NC(=O)[C@@H](NC(C)=O)C(C)C)C(=O)N[C@H](C=O)CC(=O)O [Ac-VEID-CHO] (Ac-VEID-aldehyde)"
  TARGET_DESC: "UniProt P55210"
  IC50: "162 nM"
- COMPOUND: "CC[C@H](C)[C@H](NC(C)=O)C(=O)N[C@@H](CCC(=O)O)C(=O)N[C@H](C(=O)N[C@H](C=O)CC(=O)O)[C@@H](C)O [Ac-IETD-CHO] (Ac-IETD-aldehyde)"
  TARGET_DESC: "UniProt P55210"
  IC50: "553 nM"
- COMPOUND: "COC(=O)CC[C@H](NC(=O)[C@H](CC(=O)OC)NC(=O)OCc1ccccc1)C(=O)N[C@H](C(=O)N[C@@H](CC(=O)OC)C(=O)CF)C(C)C"
  TARGET_DESC: "UniProt P55210"
  IC50: "98.5 nM"
- COMPOUND: "CC[C@H](C)[C@H](NC(=O)[C@H](CCC(=O)OC)NC(=O)[C@@H](NC(=O)OCc1ccccc1)C(C)C)C(=O)N[C@@H](CC(=O)OC)C(=O)CF [z-VEID-FMK] (Cbz-VE(OMe)ID(OMe)-CH2F)"
  TARGET_DESC: "UniProt P55210"
  IC50: "648 nM"

Values compiled from paper PMC3257251.
